Each record here notes measured IC50.
Target: Recombinant STAT6 protein (STAT6(W123-T658)) (Homo sapiens, UniProt P42226)
Construct: Recombinant STAT6 protein (STAT6(W123-T658))
Experiment: STAT6 Fluorescence Polarization (FP) Assay
Assay type: binding
Conditions: STAT6(W123-T658) 250 nM, probe 5-FAM-ApYKPFQDLI-NH2 2 nM, 45-minute incubation

Tell me IC50 reported for O=C(N[C@H]1CN(C(=O)c2ncn3c2CCCC3)CC[C@H]2CC[C@@H](C(=O)N3CCOCC3)N2C1=O)c1ccc2ccc(C(F)P(=O)(O)O)cc2c1 (some centres unmarked)
0.3 to 3 µM

State its IC50 for this compound: CCC(=O)NCCCN(C)C(=O)[C@@H]1CC[C@@H]2CCN(C(C)=O)C[C@H](NC(=O)/C=C(\C)c3ccc(C(F)(F)P(=O)(O)O)cc3)C(=O)N21
3 to 30 µM

====

Recorded IC50 for the following compounds
Biological target: Recombinant STAT3 protein (STAT3(G127-I722)) (Homo sapiens, UniProt P40763)
Construct: Recombinant STAT3 protein (STAT3(G127-I722))
Sequence (P40763 127-722): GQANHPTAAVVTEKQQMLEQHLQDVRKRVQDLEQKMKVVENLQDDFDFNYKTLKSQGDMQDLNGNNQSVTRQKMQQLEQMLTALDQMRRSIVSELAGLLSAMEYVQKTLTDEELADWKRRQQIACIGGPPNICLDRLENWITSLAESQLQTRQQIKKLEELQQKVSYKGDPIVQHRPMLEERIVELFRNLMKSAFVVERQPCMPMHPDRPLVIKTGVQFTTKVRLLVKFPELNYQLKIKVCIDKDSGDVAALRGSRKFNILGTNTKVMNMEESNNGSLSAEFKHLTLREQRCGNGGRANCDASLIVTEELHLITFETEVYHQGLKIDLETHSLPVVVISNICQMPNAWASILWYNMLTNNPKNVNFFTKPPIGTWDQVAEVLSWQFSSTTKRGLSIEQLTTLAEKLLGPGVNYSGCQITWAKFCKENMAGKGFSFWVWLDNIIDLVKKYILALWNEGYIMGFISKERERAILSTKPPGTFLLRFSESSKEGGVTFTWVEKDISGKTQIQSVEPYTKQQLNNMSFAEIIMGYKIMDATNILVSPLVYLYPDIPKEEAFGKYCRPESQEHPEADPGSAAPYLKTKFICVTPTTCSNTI
Experiment: STAT3 Fluorescence Polarization (FP) Assay
Details: STAT3(G127-I722) 25 nM, probe 5-FAM-GpYLPQTV-NH2 2 nM, 45-minute incubation

// known answers, use as guide
# Compound, Measurement Target, Meas Value
rows = [
    ("CC(=O)N1CC(N(C)C(=O)[C@@H]2CC[C@@H]3CCN(C(C)=O)C[C@H](NC(=O)c4cc5cc(C(F)(F)P(=O)(O)O)ccc5[nH]4)C(=O)N32)C1", "Recombinant STAT3 protein (STAT3(G127-I722)) (Homo sapiens, UniProt P40763)", "1000 to 10000 nM"),
    ("CC(=O)N1CC[C@H]2CC[C@@H](C(=O)N3CC[C@H](C#N)[C@H]3c3ccccc3)N2C(=O)[C@@H](NC(=O)c2cc3cc(C(F)(F)P(=O)(O)O)ccc3s2)C1 (relative stereo)", "Recombinant STAT3 protein (STAT3(G127-I722)) (Homo sapiens, UniProt P40763)", "1000 to 10000 nM"),
    ("CC(=O)N1CC[C@H]2CC[C@@H](C(=O)N3Cc4cnn(-c5ccccc5)c4C3)N2C(=O)[C@@H](NC(=O)c2cc3cc(C(F)(F)P(=O)(O)O)ccc3s2)C1", "Recombinant STAT3 protein (STAT3(G127-I722)) (Homo sapiens, UniProt P40763)", "≤ 100 nM"),
    ("Cc1ccc2onc(C(=O)N3CC[C@H]4CC[C@@H](C(=O)N5C[C@@H](c6ccn(C)c(=O)c6)CC56CC6)N4C(=O)[C@@H](NC(=O)c4ccc5ccc(C(F)(F)P(=O)(O)O)cc5c4)C3)c2c1", "Recombinant STAT3 protein (STAT3(G127-I722)) (Homo sapiens, UniProt P40763)", "1000 to 10000 nM"),
]

Give IC50 for CC(=O)N1CC[C@H]2CC[C@@H](C(=O)N3C[C@H](C#N)C[C@@H]3c3ccccc3)N2C(=O)[C@@H](NC(=O)c2cc3cc(C(F)(F)P(=O)(O)O)ccc3s2)C1 (relative stereo)
1000 to 10000 nM

====

Molecular target: Recombinant STAT6 protein (STAT6(W123-T658)) (Homo sapiens)
Construct: Recombinant STAT6 protein (STAT6(W123-T658))
Sequence (P42226 123-658): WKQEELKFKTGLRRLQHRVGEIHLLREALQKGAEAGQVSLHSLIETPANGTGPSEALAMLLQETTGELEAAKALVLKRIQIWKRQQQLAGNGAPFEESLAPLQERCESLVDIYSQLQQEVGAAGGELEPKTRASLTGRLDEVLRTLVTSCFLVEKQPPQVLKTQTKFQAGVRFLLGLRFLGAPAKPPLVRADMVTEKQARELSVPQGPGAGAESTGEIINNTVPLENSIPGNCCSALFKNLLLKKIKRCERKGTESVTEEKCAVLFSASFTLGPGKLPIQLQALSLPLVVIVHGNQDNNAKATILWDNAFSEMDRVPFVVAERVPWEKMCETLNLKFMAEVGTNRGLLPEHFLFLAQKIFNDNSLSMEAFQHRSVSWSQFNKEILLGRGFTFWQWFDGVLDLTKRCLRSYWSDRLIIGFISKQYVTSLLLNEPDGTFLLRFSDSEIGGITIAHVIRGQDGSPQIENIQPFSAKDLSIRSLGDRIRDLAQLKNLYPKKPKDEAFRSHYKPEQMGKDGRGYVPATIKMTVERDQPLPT
Experiment: STAT6 Fluorescence Polarization (FP) Assay
Conditions: STAT6(W123-T658) 250 nM, probe 5-FAM-ApYKPFQDLI-NH2 2 nM, 45-minute incubation
pIC50: −log10 of the molar value.
# pIC50 annotations

# Compound Structure, Measurement Target, Meas Value
measured = [
    ("CC(=O)N1CC[C@H]2CC[C@@H](C(=O)N(C)c3ccc(OCCN(C)C)cc3)N2C(=O)[C@@H](NC(=O)c2cc3cc(C(F)(F)P(=O)(O)O)ccc3[nH]2)C1", "Recombinant STAT6 protein (STAT6(W123-T658)) (Homo sapiens)", "5.52 to 6.52"),
    ("CC(=O)N1CC[C@H]2CC[C@@H](C(=O)N3CC(C(=O)N4CCN(C)CC4)C3)N2C(=O)[C@@H](NC(=O)c2cc3cc(C(F)(F)P(=O)(O)O)ccc3s2)C1", "Recombinant STAT6 protein (STAT6(W123-T658)) (Homo sapiens)", "5.52 to 6.52"),
]

Give reported pIC50 value for O=C(N[C@H]1CN(Cc2ccn3ccnc3c2)CC[C@H]2CC[C@@H](C(=O)N3CC(c4cccnc4)C3)N2C1=O)c1cc2cc(CP(=O)(O)O)ccc2s1
< 4.52
